test system: HT29 colon; assay: NCI tumour cell line growth inhibition, 48 h

Compound | TGI
CCOC(=O)c1c(N2CCCC2)nsc1Nc1ccc(F)cc1 | 68 µM
Cc1ccccc1[P+](Cc1ccccc1)(c1ccccc1)c1ccccc1 | 29 µM
O=C(CN1CCOCC1)Nc1nc(-c2ccc(Cl)cc2)cs1 | > 100 µM
CC12CCC(CC1=O)C2(C)CCC(N)=O (stereo not given) | > 100 µM
COc1ccc(/C=C2\CCCC3=C2N=C2SC(C)=NN2C3c2ccc(OC)c(OC)c2)cc1OC (stereo not given) | 90.1 µM
CC(=O)N1C(c2[nH]c3ccccc3c2-c2ccccc2)CCN1c1ccccc1 (stereo not given) | > 10 µM
CCc1nccc2c1nc(-c1nonc1N)n2CC | > 25 µM
C=CCOc1ccc(/C(N=Nc2ccc(Cl)cc2)=N/NC(=O)c2ccccc2)cc1OC | > 100 µM
Cc1cc(N(CCC#N)CCC#N)ccc1N=Nc1cccc(C(=O)O)c1 | > 100 µM
CC#C[C@]1(O)CC[C@H]2[C@@H]3CCC4=CC(=O)CCC4=C3[C@@H](c3ccc4c(c3)OCO4)C[C@@]21C | > 1000 µM

Reference source: PubChem BioAssay (NCI)
